# Test system: A549
# Protocol summary: NCI tumour cell line growth inhibition, 48 h
Hit rate of the full screen: of about 58,000 sequences, about 3,400 (5.9%) were called active. A selection follows. Potency and affinity values are given separately.
Quantity name: GI50 (nM)
Give your result in nM as a bare value.

Guide cases for GI50, answers given:
# Substance, Measured on, GI50 (nM)
measured = [
    ("[Bis(aminomethyl)dimethylsilane]dichloroplatinum (II), CHEMBL2146201", "A549", 17400),
    ("[Bis(aminomethyl)ethylmethylsilane]tetrachloroplatinum(IV), CHEMBL2146192", "A549", 2570),
    ("[Bis(aminomethyl)pentamethylenesilane]tetrachloropaltinum(IV), CHEMBL2146204", "A549", 2020),
    ("cis-Bis[[(trimethylsilyl)methyl]amino]tetrachloroplatinum(IV), CHEMBL2146191", "A549", 15600),
]

Query :: Recorded GI50 for [Bis(aminomethyl)pentamethylenesilane]dichloropaltinum(II), CHEMBL2146202 , please?
Result :: 2080
